src = patent US12692294B2

- systemName: T1, ErbB3 (Rattus norvegicus, UniProt Q62799)
- T1 construct: forming the ErbB2/ErbB4 complex in cardiomyocytes and the ErbB2/ErbB3 complex in Schwann cells; endogenous in cells; host or cells: rat Schwann cells
- T1 sequence (Q62799 20-1339): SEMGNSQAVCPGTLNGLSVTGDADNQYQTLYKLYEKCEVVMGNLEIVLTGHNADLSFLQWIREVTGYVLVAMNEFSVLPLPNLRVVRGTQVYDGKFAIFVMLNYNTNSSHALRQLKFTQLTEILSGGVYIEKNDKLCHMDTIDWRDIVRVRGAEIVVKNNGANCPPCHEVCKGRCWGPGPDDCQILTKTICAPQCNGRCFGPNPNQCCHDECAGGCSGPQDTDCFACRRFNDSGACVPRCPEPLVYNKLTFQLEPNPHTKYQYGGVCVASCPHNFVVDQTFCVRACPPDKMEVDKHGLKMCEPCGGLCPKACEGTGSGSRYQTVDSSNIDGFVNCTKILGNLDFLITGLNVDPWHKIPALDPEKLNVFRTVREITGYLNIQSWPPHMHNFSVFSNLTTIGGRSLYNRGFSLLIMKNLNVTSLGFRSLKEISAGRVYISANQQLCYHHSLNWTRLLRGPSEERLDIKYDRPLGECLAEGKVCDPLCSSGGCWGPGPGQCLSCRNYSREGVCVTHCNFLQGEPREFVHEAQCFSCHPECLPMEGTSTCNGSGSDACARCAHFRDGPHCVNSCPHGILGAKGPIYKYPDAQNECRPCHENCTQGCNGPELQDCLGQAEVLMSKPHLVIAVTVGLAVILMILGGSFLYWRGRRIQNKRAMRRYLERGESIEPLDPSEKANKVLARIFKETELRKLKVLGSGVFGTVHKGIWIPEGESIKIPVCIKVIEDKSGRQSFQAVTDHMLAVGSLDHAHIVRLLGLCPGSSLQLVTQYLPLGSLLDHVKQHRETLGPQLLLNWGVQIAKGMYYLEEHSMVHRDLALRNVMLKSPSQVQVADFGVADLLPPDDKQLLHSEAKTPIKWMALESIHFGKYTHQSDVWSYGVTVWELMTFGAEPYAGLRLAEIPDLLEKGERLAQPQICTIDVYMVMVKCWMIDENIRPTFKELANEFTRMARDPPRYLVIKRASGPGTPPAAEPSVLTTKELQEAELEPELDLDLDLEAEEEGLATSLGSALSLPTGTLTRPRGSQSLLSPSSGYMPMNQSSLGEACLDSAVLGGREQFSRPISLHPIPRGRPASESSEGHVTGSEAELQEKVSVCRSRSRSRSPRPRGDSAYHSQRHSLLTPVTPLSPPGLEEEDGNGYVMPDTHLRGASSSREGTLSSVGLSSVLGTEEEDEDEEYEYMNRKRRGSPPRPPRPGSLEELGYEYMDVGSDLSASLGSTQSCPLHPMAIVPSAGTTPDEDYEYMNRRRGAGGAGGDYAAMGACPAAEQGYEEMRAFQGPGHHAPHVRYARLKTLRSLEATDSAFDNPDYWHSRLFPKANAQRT
- T1 sequence (P06494 23-1257 partner): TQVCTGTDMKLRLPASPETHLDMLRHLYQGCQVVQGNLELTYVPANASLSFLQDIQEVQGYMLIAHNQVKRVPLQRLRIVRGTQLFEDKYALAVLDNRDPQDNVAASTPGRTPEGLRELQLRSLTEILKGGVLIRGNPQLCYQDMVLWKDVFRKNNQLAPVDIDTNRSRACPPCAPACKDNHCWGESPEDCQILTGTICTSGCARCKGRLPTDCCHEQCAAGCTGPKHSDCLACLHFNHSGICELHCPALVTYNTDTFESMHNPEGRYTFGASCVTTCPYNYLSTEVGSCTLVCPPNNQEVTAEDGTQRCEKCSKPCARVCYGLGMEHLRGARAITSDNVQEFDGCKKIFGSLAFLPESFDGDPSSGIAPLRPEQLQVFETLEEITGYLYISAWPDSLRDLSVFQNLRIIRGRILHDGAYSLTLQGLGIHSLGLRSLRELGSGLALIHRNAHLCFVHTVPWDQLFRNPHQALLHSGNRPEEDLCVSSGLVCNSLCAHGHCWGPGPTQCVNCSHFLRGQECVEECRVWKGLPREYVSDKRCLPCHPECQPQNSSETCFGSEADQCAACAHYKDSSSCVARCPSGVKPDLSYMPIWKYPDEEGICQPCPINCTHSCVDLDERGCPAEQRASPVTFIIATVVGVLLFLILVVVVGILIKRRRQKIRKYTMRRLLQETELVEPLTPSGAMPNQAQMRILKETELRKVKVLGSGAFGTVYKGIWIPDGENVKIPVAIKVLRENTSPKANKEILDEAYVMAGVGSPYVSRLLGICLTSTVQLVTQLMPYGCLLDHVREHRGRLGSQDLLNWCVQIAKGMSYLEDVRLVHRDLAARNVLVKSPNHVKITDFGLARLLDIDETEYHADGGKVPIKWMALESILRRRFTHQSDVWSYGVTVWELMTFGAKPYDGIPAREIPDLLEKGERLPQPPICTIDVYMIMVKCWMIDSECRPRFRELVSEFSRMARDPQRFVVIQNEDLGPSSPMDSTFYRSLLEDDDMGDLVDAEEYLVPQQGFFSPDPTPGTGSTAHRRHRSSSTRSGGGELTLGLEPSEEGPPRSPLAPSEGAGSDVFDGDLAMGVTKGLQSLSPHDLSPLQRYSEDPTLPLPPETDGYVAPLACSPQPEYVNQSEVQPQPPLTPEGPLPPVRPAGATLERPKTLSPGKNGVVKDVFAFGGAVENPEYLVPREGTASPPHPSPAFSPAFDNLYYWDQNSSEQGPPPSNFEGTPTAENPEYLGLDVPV
- runDescription: In vitro phosphorylation of Akt in rat Schwann cells
- Type: cell-based
- conditions: Akt (Serine 473) phosphorylation, 15 minutes treatment, read-out: Schwann cells (SC) (ErbB3) Avg EC50
reportedProperty: pEC50
When answering, recall that pEC50 equals minus log10 of the concentration in mol/L, and write that number alone.

# input Consider the molecule huNRG1(S177-F229)(NRGE1C) (E47S_D48T_F49R_M50V) 6xHis: 6xHis-tagged NRG1 variant SEQ ID NO:123 (protein, 6xHis tag; huNRG1(S177-F229)(NRGE1C) (E47S_D48T_F49R_M50V) 6xHis) SHLVKCGEKHKSFCVNGGECFMIEGPSNPSRYLCKCPNEFTGDRCQSTRVASFGGGGEGGGGAGGGGHHHHHH and give its measured pEC50.
# output 5.00

# input Consider the molecule huNRG1(S177-F229)(NRGE1D) (E47V_D48T_F49R_M50L) 6xHis: 6xHis-tagged NRG1 variant SEQ ID NO:130 (protein, 6xHis tag; huNRG1(S177-F229)(NRGE1D) (E47V_D48T_F49R_M50L) 6xHis) SHLVKCGESHKSFCVNGGECYMVEGSSIPSRYLCKCPNEFTGDRCQVTRLASFGGGGEGGGGAGGGGHHHHHH and give its measured pEC50.
# output 5.00

# input Consider the molecule huNRG1(S177-S228)(wt)::3x(G4Q)::huFcSEFL2 (Pb): Fc fusion of wild-type NRG1 fragment S177-S228 (protein, huNRG1(S177-S228)(wt)::3x(G4Q)::huFcSEFL2 (Pb)) STYRCVSVLTVLHQDWLNGKEYKCKVSNKALPAPIEKTISKAKGQPREPQVYTLPPSREEMTKNQVSLTCLVKGFYPSDIAVEWESNGQPENNYKTTPPVLDSDGSFFLYSKLTVDKSRWQQGNVFSCSVMHEALHNHYTQKSLSLSPGK and give its measured pEC50.
# output 10.15
